- tested.on: Cruzipain (Trypanosoma cruzi) (UniProt P25779)
- Sequence (P25779 123-467 limits assumed): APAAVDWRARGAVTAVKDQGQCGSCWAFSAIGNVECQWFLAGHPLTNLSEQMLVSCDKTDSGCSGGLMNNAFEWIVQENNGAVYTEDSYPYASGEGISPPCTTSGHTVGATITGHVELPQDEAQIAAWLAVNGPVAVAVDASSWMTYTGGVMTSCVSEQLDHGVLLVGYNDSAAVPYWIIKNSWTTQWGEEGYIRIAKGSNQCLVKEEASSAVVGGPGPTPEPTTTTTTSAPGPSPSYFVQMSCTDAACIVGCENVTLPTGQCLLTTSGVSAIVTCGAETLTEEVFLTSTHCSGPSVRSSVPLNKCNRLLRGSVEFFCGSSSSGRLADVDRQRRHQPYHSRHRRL
- test.details: Inhibition of Trypanosoma cruzi cruzaine at 100 uM pre-incubated for 10 mins
Rule: true for inhibition not less than 30%, false for anything less.

Below are worked cases with known answers.
compound	group
CC1S/C(=N/N=C/CCSc2ccccc2)NC1=O (configuration not stated)	true
O=C1CS/C(=N/N=C/CSc2ccc(Cl)cc2)N1	false

Assess whether reported inhibition for O=C1CS/C(=N/N=C/C=C/c2ccccc2)N1 sits at 30% or higher.
false

Assess whether reported inhibition for NC(=S)N/N=C/CSc1ccccc1 sits at 30% or higher.
false

====

- Tested on: Trypanosoma cruzi
- test.details: Antitrypanosomal activity against epimastigotes of Trypanosoma cruzi Y assessed as viability at 40 uM after 7 days by trypan blue exclusion assay
- Format: functional
- condition: 168 h
Listing of entries alongside the reported inhibition at 40 µM.
Field format: number, assumed %, no unit text.

compound	inhibition at 40 µM, %
O=C(Cn1ccnc1[N+](=O)[O-])NCc1ccccc1 [BENZNIDAZOLE]	85
CCC1S/C(=N/N=C/CSc2ccc(Br)cc2)NC1=O (stereo not given)	61
CC1S/C(=N/N=C/CCSc2ccccc2)NC1=S (stereo not given)	94
Cc1ccc(SC/C=N/N=C2\NC(=O)C(C)S2)cc1 (stereo not given)	97

Could you now look at the following compound, please?
GET /values?readout=inhibition at 40 µM&item= CC1S/C(=N/N=C/CCSc2ccccc2)NC1=O (stereo not given)
100
